Target: HIV-1 Nucleocapsid Protein (NCp7) (Human immunodeficiency virus type 1 group M subtype B)
Construct: The NCp7 protein containing 2 Zn-fingers and 2 Zn ions is incubated with drug
Assay: Zinc extrusion assay (TSQ fluorescence) from the zinc fingers of HIV-1 nucleocapsid protein (NCp7)
Type: biochemical
Conditions: 10 μM compound, 2.8 μM NCp7, pH 7.4, 26° C., 90 minutes
Excerpt: The compounds of the present invention cause the extrusion of zinc from the nucleocapsid protein (NCp7) of HIV-1. […] A fluorescence-based assay has been developed to monitor the ejection of zinc from purified HIV-1 NCp7. […] The released Zn is then sequestered by the TSQ and the increased fluorescence monitored relative to control. […] Fluorescence (excitation 355 nm emission 400 nm) was monitored versus time. […]
Quick reference: % Zinc Extrusion Relative to Control of the listed items.
Express it in %; write the number only.

Worked cases, % Zinc Extrusion Relative to Control given:
{"compound": "CS(=O)(=O)c1ccc(NC(=O)c2ccccc2SSc2ccccc2C(=O)Nc2ccc(S(C)(=O)=O)cc2)cc1 [Example 94]", "measurementUnit": "%", "number": 62}
{"compound": "NC(=O)c1cc(NC(=O)c2ccccc2)ccc1SSc1ccc(NC(=O)c2ccccc2)cc1C(N)=O [Example 75]", "measurementUnit": "%", "number": 52}
{"compound": "Cc1cccc(C(=O)N[C@@H](CC(C)C)C(=O)O)c1SSc1c(C)cccc1C(=O)N[C@@H](CC(C)C)C(=O)O [Example 56]", "measurementUnit": "%", "number": 73}
{"compound": "NC(=O)c1cc(NC(=O)C(F)(F)F)ccc1SSc1ccc(NC(=O)C(F)(F)F)cc1C(N)=O [Example 74]", "measurementUnit": "%", "number": 59}

Shift focus to the following entry.
So what's the measured % Zinc Extrusion Relative to Control for this one? NS(=O)(=O)c1ccc(NS(=O)(=O)c2ccccc2SSc2ccccc2S(=O)(=O)Nc2ccc(S(N)(=O)=O)cc2)cc1 [Example 145]
65

====

system: SIV; assay: Antiviral activity, SIV in CEM cells; format: cell-based; details: Simian immunodeficiency virus, CCRF-CEM, read-out: EC50
reportedEndpoint: pEC50
Here pEC50 is given on a logarithmic scale as minus log10 of the concentration in mol/L.

{"molecule": "CC(=O)Nc1ccc(SSc2ccc(NC(C)=O)cc2C(N)=O)c(C(N)=O)c1 [Example 9, 2,2'-Dithiobis(5-acetylamino)benzamide]", "systemUnderTest": "SIV", "number": 5.68}

# returns recorded pEC50 (system: SIV) for `CC(=O)NS(=O)(=O)c1ccc(NC(=O)c2ccccc2SSc2ccccc2C(=O)Nc2ccc(S(=O)(=O)NC(C)=O)cc2)cc1`
5.47

Find pEC50 (SIV) for the entry `NS(=O)(=O)c1ccc(NC(=O)c2ccccc2SSc2ccccc2C(=O)Nc2ccc(S(N)(=O)=O)cc2)cc1`
4.84

====

As shown below, each of these molecules has a reported CC50 value.
assay: CEM cell growth inhibition (XTT, noninfected cells); assay type: cell-based; settings: human, CEM Cell Assay, drug alone, read-out: IC50 (Inhibitory Concentration where drug alone inhibits cell growth)

// worked examples, CC50 included
{"molecule": "CC(SSc1ccccc1C(=O)Nc1ccc(S(N)(=O)=O)cc1)C(=O)NCC(=O)O (stereo not shown)", "CC50": "> 100 µM"}
{"molecule": "O=C(N[C@@H](C(=O)O)c1ccccc1)c1ccccc1SSc1ccccc1C(=O)N[C@@H](C(=O)O)c1ccccc1", "CC50": "> 100 µM"}
{"molecule": "NS(=O)(=O)c1ccc(NC(=O)c2ccccc2SSc2ccccc2C(=O)Nc2ccc(S(N)(=O)=O)cc2)cc1", "CC50": "> 120 µM"}
{"molecule": "CC(=O)Nc1ccc(SSc2ccc(NC(C)=O)cc2C(N)=O)c(C(N)=O)c1 [Example 9, 2,2'-Dithiobis(5-acetylamino)benzamide]", "CC50": "> 120 µM"}

# input molecule: CC(SSc1ccccc1C(=O)Nc1ccc(S(N)(=O)=O)cc1)C(=O)O (stereo not shown) ; wanted: its CC50
> 100 µM

Consider the molecule shown here: `COc1ccc(C(=O)Nc2ccc(S(N)(=O)=O)cc2)c(SSc2cc(OC)ccc2C(=O)Nc2ccc(S(N)(=O)=O)cc2)c1` What is its recorded CC50?
> 100 µM

Recorded CC50 for `NS(=O)(=O)c1cc(Cl)ccc1SSc1ccc(Cl)cc1S(N)(=O)=O` , please?
30 µM

====

test system: HIV-16R; test: Anti-HIV activity, HIV-16R in MT-4 cells; type: cell-based, HIV-1; details: Human immunodeficiency virus 1, MT4, read-out: EC50 (AZT)
reportedEndpoint: EC50

Please look up its EC50: Cc1cn([C@H]2C[C@H](N=[N+]=[N-])[C@@H](CO)O2)c(=O)[nH]c1=O [AZT, azidothymidine, reference compound]
> 1 µM

====

CC50: recorded values
test: CEM cell growth inhibition (XTT, noninfected cells); assay type: cell-based; settings: human, CEM Cell Assay, drug alone, read-out: IC50 (Inhibitory Concentration where drug alone inhibits cell growth)

Entry NS(=O)(=O)c1ccc(CNC(=O)c2ccccc2SSc2ccccc2C(=O)NCc2ccc(S(N)(=O)=O)cc2)cc1 [Example 12] : reported CC50 = ?
21 µM

Please look up its CC50: O=C(O)Cc1ccc(NC(=O)c2ccccc2SSc2ccccc2C(=O)Nc2ccc(CC(=O)O)cc2)cc1 [Example 108]
61 µM

====

assay: H9 cell cytotoxicity (XTT assay, uninfected cells); format: cell-based; details: human, drug alone, read-out: IC50 (Inhibitory Concentration where drug alone inhibits cell growth)
Reported values of CC50 at 168 h for individual entries
Provide only the numeric value, understood in µM.

Reference set, count: 2
{"compound": "NS(=O)(=O)c1ccc(NC(=O)c2ccccc2SSc2ccccc2C(=O)Nc2ccc(S(N)(=O)=O)cc2)cc1", "number": 36}
{"compound": "CCC(C)C(NC(=O)c1ccccc1SSc1ccccc1C(=O)NC(C(=O)O)C(C)CC)C(=O)O (racemic)", "number": 62}

Need CC50 at 168 h, item NS(=O)(=O)c1ccc(NC(=O)c2ccccc2S)cc1 [Example 6, 2-Thio-N-(4-sulfamoylphenyl)benzamide]
28

# lookup: CC50 at 168 h of `O=C(Nc1ccc(S(=O)(=O)Nc2ncccn2)cc1)c1ccccc1SSc1ccccc1C(=O)Nc1ccc(S(=O)(=O)Nc2ncccn2)cc1`
22

Look at this compound and give its reported CC50 at 168 h. `CC(=O)NS(=O)(=O)c1ccc(NC(=O)c2ccccc2SSc2ccccc2C(=O)Nc2ccc(S(=O)(=O)NC(C)=O)cc2)cc1`
27

====

assay: CEM cell growth inhibition (XTT, noninfected cells); assay type: cell-based; conditions: human, CEM Cell Assay, drug alone, read-out: IC50 (Inhibitory Concentration where drug alone inhibits cell growth)
Entries whose CC50 is below 70 µM take fulfilled; entries at or above 70 µM take not fulfilled.

// below: answered compounds
{"compound": "COC(=O)c1ccccc1SSc1ccccc1C(=O)Nc1ccc(S(N)(=O)=O)cc1", "class": "fulfilled"}
{"compound": "Cc1ccc(SSc2ccc(C)cc2C(=O)Nc2ccc(S(N)(=O)=O)cc2)c(C(=O)Nc2ccc(S(N)(=O)=O)cc2)c1", "class": "not fulfilled"}
{"compound": "CCC(C)C(NC(=O)c1ccccc1SSc1ccccc1C(=O)NC(C(=O)O)C(C)CC)C(=O)O (racemic)", "class": "not fulfilled"}
{"compound": "O=C(O)CCNC(=O)c1ccccc1SSc1ccccc1C(=O)NCCC(=O)O", "class": "not fulfilled"}

Here's an entry: `O=C(O)c1ccc(NC(=O)c2ccccc2SSc2ccccc2C(=O)Nc2ccc(C(=O)O)cc2)cc1` . Is its CC50 below 70 µM?
fulfilled

Here's an entry: `CC(C)(C)[C@H](NC(=O)c1ccccc1SSc1ccccc1C(=O)N[C@H](C(=O)O)C(C)(C)C)C(=O)O` . Is its CC50 below 70 µM?
not fulfilled

CC50 under 70 µM? Item: `CN(C(=O)c1ccccc1SSc1ccccc1C(=O)N(C)c1ccc(S(N)(=O)=O)cc1)c1ccc(S(N)(=O)=O)cc1`
not fulfilled

Input `NS(=O)(=O)c1ccc(NC(=O)c2ccc(F)cc2SSc2cc(F)ccc2C(=O)Nc2ccc(S(N)(=O)=O)cc2)cc1` ; condition: CC50 strictly below 70 µM. Does it hold?
fulfilled

====

tested on: HIV-1BAKI; test: Anti-HIV activity, clinical isolate HIV-1BAKI in PBL; format: cell-based; settings: PBL
reportedEndpoint: EC50 (nM)
Write the answer as a number in nM, unit excluded.

Which value of EC50 has been reported for `NS(=O)(=O)c1ccc(NC(=O)c2ccccc2SSc2ccccc2C(=O)Nc2ccc(S(N)(=O)=O)cc2)cc1` in the records?
250

====

Assay: CEM cell growth inhibition (XTT, noninfected cells)
Assay type: cell-based
Conditions: human, CEM Cell Assay, drug alone, read-out: IC50 (Inhibitory Concentration where drug alone inhibits cell growth)
Method: Yet another test system employed to determine antiviral activity is called the CEM cell assay. […] The candidate agent is dissolved in dimethyl sulfoxide (unless otherwise noted), then diluted 1:200 in cell culture medium. […] Individual wells are analyzed spectrophotometrically to quantitate formazan production, and in addition are viewed microscopically for detection of viable cells confirmation of protective activity. […]
# CC50 annotations
Give your result in µM as a bare value.

Fill blank: measured CC50 of the compound COC(=O)[C@H](CSSc1ccccc1C(=O)Nc1ccc(S(N)(=O)=O)cc1)NC(C)=O [Example 133] is ____.
69

Fill blank: measured CC50 of the compound COc1ccc(C(=O)N[C@@H](CC(C)C)C(=O)O)c(SSc2cc(OC)ccc2C(=O)N[C@@H](CC(C)C)C(=O)O)c1 [Example 54] is ____.
75

Look up CC50: NC(=O)c1cc(NC(=O)c2ccccc2)ccc1SSc1ccc(NC(=O)c2ccccc2)cc1C(N)=O [Example 75]
59

Endpoint output: CC50 of CC(C)(SSc1ccccc1C(=O)Nc1ccc(S(N)(=O)=O)cc1)C(N)C(=O)O (stereo not shown) [Example 138] . Value?
66
